Hey, just so you know, these numbers are from patent US20170136008A1.

Tested on: OVCAR-8 ovarian cancer cells
EXPERIMENTAL_DETAILS: MTT cytotoxicity assay, OVCAR-8
Assay type: cell-based, human
TEST_CONTEXT: Homo sapiens, OVCAR-8, OVCAR8, read-out: IC50, viability of ovarian cancer cell line
pIC50: −log10 of the molar value.
RECORDED_METRIC: pIC50

* CN1CCN(C(=O)C2C(C(=O)O)[C@H]3CC[C@@H]2O3)CC1 (stereo partly shown) | 5.26

====

Tested on: ovarian cancer cell lines
EXPERIMENTAL_DETAILS: MTT cytotoxicity assay, ovarian cancer cell line panel
Format: cell-based
TEST_CONTEXT: Homo sapiens, SK-OV-3; ovarian lines other than SKOV-3
RECORDED_METRIC: IC50

• CN1CCN(C(=O)C2C(C(=O)O)[C@H]3CC[C@@H]2O3)CC1 (stereo partly shown) [LB100] = 5.7 µM
